Measured IC50, listed per entry.
- METHOD SUMMARY: Inhibition of NADH oxidase in beef heart submitochondrial particles by end-window spectrophotometry
- Set-up: species or system Bos taurus
# unit: nM | format: bare number

[[record]]
molecule = "C=CC(C)(C)c1[nH]cnc1/C=C1/NC(=O)[C@H](C(C)C)NC1=O [AURANTIAMINE]"
value_units = "nM"
quantitative_result = 15100

[[record]]
molecule = "C=C1C[C@@H]2[C@]3(C)C(=C(O)C(=O)[C@@]2(C)[C@]2(C(=O)OC)C(=O)O[C@H](C)C(=O)[C@@]12C)C(C)(C)C(=O)C[C@@H]3O [terretonin E]"
value_units = "nM"
quantitative_result = 3900

[[record]]
molecule = "C=C1C[C@@H]2[C@@]3(C)C=CC(=O)C(C)(C)C3=C(O)C(=O)[C@@]2(C)[C@]2(C(=O)OC)C(=O)O[C@H](C)C(=O)[C@@]12C [terretonin F]"
value_units = "nM"
quantitative_result = 2970

[[record]]
molecule = "CCCCCCCCCC[C@H](O)[C@H]1CC[C@H]([C@H]2CC[C@H]([C@H](O)CCCCCCCCCCCCC3C(=O)O[C@@H](C)[C@@H]3O)O2)O1 (stereo not given in full) [LAHERRADURIN]"
value_units = "nM"
quantitative_result = 0.18


Continue with the next molecule.
Q. Give its IC50 value. Item: C=C(C)[C@H]1Cc2c(ccc3c2O[C@@H]2COc4cc(OC)c(OC)cc4[C@@H]2C3=O)O1 [ROTENONE]
A. 5.1
